# IC50 listing for each entry below
System Tested: Gamma-secretase
Test Summary: Inhibition of gamma-secretase activity in H4 human neuroglioma cells by measuring amyloid beta production
Assay type: cell-based
Give your result in nM as a bare value.

Chemical String | Unit Tag | IC50
CCCCNC(=O)[C@H](CC1CCCCC1)NC(=O)[C@H](CC(C)C)NC(=O)Cc1ccccc1 | nM | 240
CCCCN(C)C(=O)[C@H](CC1CCCCC1)NC(=O)[C@H](CC(C)C)NC(=O)Cc1ccccc1F | nM | 280
CCCCN(C)C(=O)[C@H](CC1CCCCC1)NC(=O)[C@H](CC(C)C)NC(=O)CCc1ccccc1 | nM | 160
CCCCN(C)C(=O)[C@H](CC1CCCCC1)NC(=O)[C@H](CC(C)C)NC(=O)[C@H](O)c1ccccc1 | nM | 240
CC(C)C[C@H](NC(=O)Cc1ccccc1)C(=O)N[C@@H](CC1CCCCC1)C(=O)N1CCCCC1 | nM | 50
CCCCN(C)C(=O)[C@H](CC1CCCCC1)NC(=O)[C@H](C)NC(=O)Cc1cc(F)cc(F)c1 | nM | 32

Bench note, Gamma-secretase: entry `CC(C)CNC(=O)[C@H](CC1CCCCC1)NC(=O)[C@H](CC(C)C)NC(=O)Cc1ccccc1` , its IC50 = 150

Reported Gamma-secretase IC50 for item `CCCCN(C)C(=O)[C@H](CC1CCCCC1)NC(=O)CNC(=O)Cc1cc(F)cc(F)c1` was 300

Lab note: molecule `CCCCN(C)C(=O)[C@@H]1Cc2ccccc2CN1C(=O)[C@H](CC(C)C)NC(=O)[C@@H](O)c1ccccc1` tested on Gamma-secretase; recorded IC50 was 66

Recorded values, source ChEMBL document CHEMBL1147518.
